target: canine IL-4RA (construct not given) (canine); assay: SPR, IL-4RA immobilised, periplasmic Fab
Measured metric: RU max (RU)
The reply should contain only the number, in RU.

Previously resolved entries follow.
Binder	Unit label	RU max
FJ2246MP10A09 (Fab, V domains shown) VH: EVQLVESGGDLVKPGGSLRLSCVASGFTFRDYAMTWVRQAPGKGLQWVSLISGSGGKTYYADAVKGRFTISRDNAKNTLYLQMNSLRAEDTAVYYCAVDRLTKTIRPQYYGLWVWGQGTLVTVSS VL: DIVMTQTPLSLSVSPGETASISCRSSQSLLYSIGYNYLDWYLQKPGQSPQGLIYLGSKRASGVPDRFSGSGSGTDFTLRISRVEAEDTGVYYCMQGLHSPLSFGQGTKLEIK	RU	437
FJ2246MP06E12 (Fab, V domains shown) VH: EVQLVESGGDLVKPGGSLRLSCVASGFTFRDYAMTWVRQAPGKGLQWVSLINGNGGKTYYADAVKGRFTISRDNAKNTLYLQMNSLRAEDTAVYYCAVDRLTKTIRPQYYGLWVWGQGTLVTVSS VL: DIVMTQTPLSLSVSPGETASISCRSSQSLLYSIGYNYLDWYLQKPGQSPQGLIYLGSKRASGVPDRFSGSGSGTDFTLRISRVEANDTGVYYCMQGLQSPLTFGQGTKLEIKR	RU	127

Here is the next item to consider.
Lookup: Entry under review: FJ2246MP10D01 (Fab, V domains shown) VH: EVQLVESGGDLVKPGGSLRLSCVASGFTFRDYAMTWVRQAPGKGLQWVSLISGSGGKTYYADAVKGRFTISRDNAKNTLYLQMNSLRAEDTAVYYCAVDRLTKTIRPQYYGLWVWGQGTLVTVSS VL: DIVMTQTPLSLSVSPGETASISCRSSQSLLYSIGYNYLDWYLQKPGQSPQGLIYLGSKRASGVPDRFSGSGSGTDFTLRISRVEADDTGVYYCMQGLQSPLSFGQGTKLEIK . Reported RU max?
Found: 283
